Before we begin, note that these IC50 values for Procathepsin L (Homo sapiens) originate from several publications.
Readout: IC50

molecule=CC(=O)N[C@H](CC(=O)N1CCc2ccccc2C1)C(=O)N[C@H](C=O)Cc1ccccc1 readout=IC50 endpoint_value="2 µM"
molecule=CCCC[C@H](NC(=O)O[C@@H]1CN(C(=O)Nc2ccc(C(F)(F)F)cc2)CC1(C)C)C(=O)C(=O)Nc1ccn[nH]1 readout=IC50 endpoint_value="0.1 to 1 µM"
molecule=N#CC1(NC(=O)C2(NC(=O)c3cc4ccc(-c5ccc(-n6ccnn6)cc5)cc4o3)CCC(F)(F)CC2)CC1 readout=IC50 endpoint_value="> 10 µM"
molecule=N#CC1(NC(=O)C2(NC(=O)c3cc4ccc(-c5csc(N6CCNC6=O)n5)cc4o3)CCCCC2)CC1 readout=IC50 endpoint_value="> 10 µM"
molecule="N#CC1(NC(=O)C2(NC(=O)c3cc4ccc(-c5ccc(C(O)C(F)F)cc5)cc4o3)CCCCC2)CC1 (centres unmarked)" readout=IC50 endpoint_value="> 10 µM"
molecule=CC(C)[C@@H]1NC(=O)/C=C/[C@@H](N)COC(=O)[C@H](Cc2ccc(O[Si](C)(C)C(C)(C)C)cc2)NC1=O readout=IC50 endpoint_value="3 to 10 µM"
molecule=CS(=O)(=O)Nc1ccc(-c2ccc3cc(C(=O)NC4(C(=O)NC5(C#N)CC5)CCC(F)(F)CC4)oc3c2)cc1 readout=IC50 endpoint_value="> 10 µM"
molecule=COC(C)(C)C(=O)N[C@@H](CCCNC(=N)N)C(=O)COC(C(F)(F)F)C(F)(F)F readout=IC50 endpoint_value="> 10 µM"
molecule=COc1ccc(-c2ccc([C@H](N[C@@H](CC(C)C)C(=O)N3C[C@H](F)[C@H]4OCC(=O)[C@H]43)C(F)(F)F)cc2)cc1 readout=IC50 endpoint_value="29 µM"
molecule=Cc1ccc(-c2ccc([C@H](N[C@@H](CC(C)C)C(=O)N3C[C@H](F)[C@H]4OCC(=O)[C@H]43)C(F)(F)F)cc2)cc1 readout=IC50 endpoint_value="20 µM"
molecule=COc1ccc(C#N)cc1-c1cnc(C(=O)N[C@@H]2C[C@@H](C)N(C#N)C2)o1 readout=IC50 endpoint_value="294 µM"
molecule=C[C@@]1(NC(=O)[C@H](CC2CCCCC2)NC(=O)CCCCCNC(=NC(=O)OCc2ccccc2)NC(=O)OCc2ccccc2)C(=O)N[C@H]1Oc1ccccc1 readout=IC50 endpoint_value="32.5 µM"
molecule=N#CC1(NC(=O)C2(NC(=O)c3cc4ccc(-c5csc(N6CCCC6=O)n5)cc4o3)CCCCC2)CC1 readout=IC50 endpoint_value="> 10 µM"
molecule=N#CC1(NC(=O)C2(NC(=O)c3cc4ccc(-c5ccc6ncoc6c5)cc4o3)CCC(F)(F)CC2)CC1 readout=IC50 endpoint_value="> 10 µM"
